- Procedure Details: NCI Yeast Anticancer Drug Screen. Data for the rad50 strain (AID 155);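 also: 0% = growth of vehicle-only cultures of the same strain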
- Condition Set: S. cerevisiae rad50 strain growth inhibition; at 5.0 µM (retest, dose inferred, filed as 0.5); hits give high values
About 79,000 compounds went through this panel and 15% of them were active in at least one assay; those are over-represented in the sample as a whole. Calls of active or inactive are those of the source. Rule as the data show it: active = growth inhibition above about 70%; inactive = the rest.
Measured Attribute: growth inhibition

In: State the recorded growth inhibition for this entry: `O=C(Cc1nc2ccccc2s1)C(=O)Nc1ccc(Cl)cc1`
Out: 2% (inactive)

In: State the recorded growth inhibition for this entry: CCCN1CN(C(C(=O)N[C@@H]2C(=O)N3C(C(=O)O)=C(C)CSC23)c2ccccc2)CSC1=S (stereo partly drawn)
Out: -19% (inactive)

In: State the recorded growth inhibition for this entry: `FC(F)(F)c1ccccc1NC(=S)SCc1ccco1`
Out: 1% (inactive)

---

- Procedure Details: NCI Yeast Anticancer Drug Screen. Data for the mec2-1 strain (AID 157)
- Condition Set: S. cerevisiae mec2-1 strain, at 50.0 µM, hits give high values
This is part of a sample that, as a whole, favours compounds with a hit. Of some 79,000 tested, about 15% had one in any assay.
Please respond with reported growth inhibition for every item in the list.
State the answer as a number, implicitly in %.

In: State the recorded growth inhibition for this entry: CCCCCCCC(CC(=O)O)OC(=O)CC(CCCCCCC)OC1OC(C)C(O)C(O)C1OC1OC(C)C(O)C(O)C1O (centres undefined)
Out: 91.8

In: State the recorded growth inhibition for this entry: `CCc1cc2c(cc1O)CC[C@@H]1[C@@H]2CC[C@]2(C)[C@@H](O)CC[C@@H]12`
Out: 92

In: State the recorded growth inhibition for this entry: CC([C@H]1CCC2C3CCC4CC5(CC[C@]4(C)C3CC[C@@]21C)c1ccccc1C(=O)N5C)N(C)C (some centres undefined)
Out: 89.4

In: State the recorded growth inhibition for this entry: `NN(Cc1ccccc1)c1ccccc1`
Out: 91.7

---

Please respond with reported growth inhibition for every item in the list.
- Procedure Details: NCI Yeast Anticancer Drug Screen. Data for the sgs1 mgt1 strain (AID 161);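 also: 0% = growth of cultures given vehicle only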
- Condition Set: S. cerevisiae sgs1 mgt1 strain, at 50.0 µM, hits give high values
This is part of a sample that, as a whole, favours compounds with a hit. Of some 79,000 tested, about 15% had one in any assay.
State the answer as a number, implicitly in %.

In: State the recorded growth inhibition for this entry: `NCc1cccc(O)c1O`
Out: 41.5

In: State the recorded growth inhibition for this entry: `CCOc1ccccc1NC1=C(Cl)C(=O)c2ccccc2C1=O`
Out: 98

In: State the recorded growth inhibition for this entry: `Oc1ccccc1C1N(Cc2ccc(Cl)cc2)CCN1Cc1ccc(Cl)cc1`
Out: 46.5

In: State the recorded growth inhibition for this entry: Nc1ncnc2c1ncn2CC(O)CN(CCO)CCO (centres undefined) (tested in a mixture with another compound)
Out: -12.1

---

Please respond with reported growth inhibition for every item in the list.
- Procedure Details: NCI Yeast Anticancer Drug Screen. Data for the sgs1 mgt1 strain (AID 161);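 also: 0% = growth of cultures given vehicle only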
- Condition Set: S. cerevisiae sgs1 mgt1 strain, at 50.0 µM (retest, dose inferred, filed as 5.0), hits give high values
- Experimental: Growth inhibition of yeast strains with defined genetic alterations is measured as a screen for potential anti-cancer activity. Selected strains with alterations in DNA damage repair or cell cycle control were exposed to compounds and growth inhibition was measured relative to vehicle treated controls. The strain used in this assay is sgs1 mgt1
About 79,000 compounds went through this panel and 15% of them were active in at least one assay; those are over-represented in the sample as a whole. Active and inactive are the calls of the source. No stated cut-off is given here; in the data, active means growth inhibition above about 70%; inactive means the rest.

In: State the recorded growth inhibition for this entry: `O=C(CCCN1CCc2[nH]c3cc(F)ccc3c2C1)c1ccc(F)cc1`
Out: 98% (active)

In: State the recorded growth inhibition for this entry: `O=C(O)CC/C(=N\Nc1ccccc1)C(=O)O`
Out: 84% (active)

In: State the recorded growth inhibition for this entry: `Nc1ccc(-c2nc3ccccc3s2)cc1I`
Out: 88% (active)

In: State the recorded growth inhibition for this entry: Cc1ccccc1NC(=O)C1C(=O)N(c2ccccc2C)C(=O)/C1=N/O (centres undefined)
Out: -19% (inactive)

In: State the recorded growth inhibition for this entry: `CCOc1nc(N)nc(C)c1N=Nc1ccc(Cl)cc1Cl`
Out: 88% (active)

In: State the recorded growth inhibition for this entry: `ICCCCSc1cc(-c2ccccc2)[o+]c2ccccc12`
Out: 75% (active)

In: State the recorded growth inhibition for this entry: `CCOC(=O)OC(=S)N(C1CCCCC1)C1CCCCC1`
Out: 76% (active)

In: State the recorded growth inhibition for this entry: `O=c1oc2ccccc2c(O)c1C1=N/C(=N/N=C/c2ccc(Cl)cc2)SC1`
Out: 97% (active)

In: State the recorded growth inhibition for this entry: `CCOC(=O)c1[nH]c2c([N+](=O)[O-])cccc2c1[N+](=O)[O-]`
Out: 9% (inactive)

In: State the recorded growth inhibition for this entry: CCCCCCCCCCCCCCCCOCC(Cl)COP(=O)(O)OP(=O)(O)OCC1OC(n2cc(C)c(=O)[nH]c2=O)CC1O (centres undefined)
Out: 99% (active)

In: State the recorded growth inhibition for this entry: `CC(C)(C)C(=O)CC(=O)C(F)(F)C(F)(F)C(F)(F)F.CC(C)(C)C(=O)CC(=O)C(F)(F)C(F)(F)C(F)(F)F.CC(C)(C)C(=O)CC(=O)C(F)(F)C(F)(F)C(F)(F)F.[Er]`
Out: 38% (inactive)

In: State the recorded growth inhibition for this entry: `NC(=O)c1c(Cl)nc2n1CCS2`
Out: 1% (inactive)

In: State the recorded growth inhibition for this entry: COc1cc2c(cc1C(C)C)CCC1C(C)(C#N)CCCC21C (centres undefined)
Out: -29% (inactive)

In: State the recorded growth inhibition for this entry: CC1CCN(CCOC(=O)C(c2ccccc2)C2C=CCCC2)C1 (centres undefined)
Out: 77% (active)
